Data origin: patent US9315490B2

molecular target: human PDE4B1 (Homo sapiens); construct: host or cells: Sf9 cells; assay: cAMP HTRF assay to determine the activity of hPDE4B1; assay type: biochemical; details: inhibition of PDE4B at a test concentration of 1 μM
measured-quantity: inhibition at 1 µM (%)

Here's what some known entries look like.
compound | measured-quantity | measured
C[S+]([O-])c1cn(-c2ncc(-c3c(F)cccc3F)cn2)c2cc(C(=O)N3CCOCC3)ccc12 (stereo not shown) [Example 44] | inhibition at 1 µM | 82
COc1ccc(F)c(-c2cnc(-n3cc([S+](C)[O-])c4ccc(C(=O)N5CC[C@@H](N)C5)cc43)nc2)c1 (stereo partly shown) [Example 226] | inhibition at 1 µM | 99
C[C@@H]1COCCN1C(=O)c1ccc2c([S+](C)[O-])cn(-c3ncc(-c4ccccc4F)cn3)c2c1 (stereo partly shown) [Example 179] | inhibition at 1 µM | 90
C[S+]([O-])c1cn(-c2ncc(-c3ccccc3)cn2)c2cc(C(=O)N3CC[C@@H](N)C3)ccc12 (stereo partly shown) [Example 223] | inhibition at 1 µM | 89

I. C[S+]([O-])c1cn(-c2ncc(-c3ccc(F)cc3F)cn2)c2cc(C(=O)N3CCOCC3)ccc12 (stereo not shown) [Example 18]
II. CC(C)N1CCN(C(=O)c2ccc3c([S+](C)[O-])cn(-c4ncc(-c5ccccc5F)cn4)c3c2)CC1 (stereo not shown) [Example 386]
III. Cc1cccc(-c2cnc(-n3cc(S(C)(=O)=O)c4ccc(C(=O)N5CCOCC5)cc43)nc2)c1 [Example 156]
Request: Order each entry by recorded inhibition at 1 µM, climbing from the minimum. Please, when replying, give the labels in the order that was requested.
Result: II, III, I

====

target: human PDE4B1 (Homo sapiens, UniProt Q07343); construct: host or cells: Sf9 cells; assay: cAMP HTRF assay to determine the activity of hPDE4B1; assay type: biochemical; conditions: inhibition of PDE4B at a test concentration of 1 μM
Sequence (Q07343 whole entry): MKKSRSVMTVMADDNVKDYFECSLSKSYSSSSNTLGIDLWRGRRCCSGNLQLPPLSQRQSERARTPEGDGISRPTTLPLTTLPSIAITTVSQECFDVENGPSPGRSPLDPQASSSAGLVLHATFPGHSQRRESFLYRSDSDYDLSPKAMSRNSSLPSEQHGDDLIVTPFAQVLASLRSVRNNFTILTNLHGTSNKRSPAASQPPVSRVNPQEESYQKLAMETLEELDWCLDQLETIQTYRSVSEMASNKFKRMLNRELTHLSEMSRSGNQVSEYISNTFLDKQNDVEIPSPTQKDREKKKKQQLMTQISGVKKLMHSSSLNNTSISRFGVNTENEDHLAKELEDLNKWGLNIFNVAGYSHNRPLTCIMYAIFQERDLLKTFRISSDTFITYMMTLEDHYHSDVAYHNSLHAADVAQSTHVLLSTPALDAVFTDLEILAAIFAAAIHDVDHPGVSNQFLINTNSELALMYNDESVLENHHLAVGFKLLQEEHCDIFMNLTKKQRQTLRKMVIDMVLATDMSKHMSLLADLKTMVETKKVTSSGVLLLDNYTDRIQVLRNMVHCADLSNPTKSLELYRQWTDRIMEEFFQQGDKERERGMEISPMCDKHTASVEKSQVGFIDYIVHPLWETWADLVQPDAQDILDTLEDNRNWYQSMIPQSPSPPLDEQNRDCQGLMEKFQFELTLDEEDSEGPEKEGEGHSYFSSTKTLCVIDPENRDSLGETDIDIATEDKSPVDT
measured-quantity: inhibition at 1 µM (%)

Here's what some known entries look like.
compound | u | measured
CCc1cccc(-c2cnc(-n3cc([S+](C)[O-])c4ccc(C(=O)N5CCOCC5)cc43)nc2)c1 (stereo not shown) | % | 109
C[S+]([O-])c1cn(-c2ncc(-c3ccc(C(N)=O)cc3F)cn2)c2cc(C(=O)N3CCNCC3)ccc12 (stereo not shown) | % | 44
CS(=O)(=O)c1cn(-c2ncc(-c3ccccc3)cn2)c2cc(C(=O)N3C[C@H]4C[C@@H]3CO4)ccc12 | % | 36
COCCN(C)C(=O)c1ccc2c([S+](C)[O-])cn(-c3ncc(-c4ccccc4F)cn3)c2c1 (stereo not shown) | % | 40
CC1CCCN(C(=O)c2ccc3c([S+](C)[O-])cn(-c4ncc(-c5ccccc5F)cn4)c3c2)C1 (stereo not shown) | % | 78

1. C[S+]([O-])c1cn(-c2ncc(-c3ccccc3F)cn2)c2cc(C(=O)N3CCSCC3)ccc12 (stereo not shown)
2. C[S+]([O-])c1cn(-c2ncc(-c3cc(C#N)ccc3F)cn2)c2cc(C(=O)N3CCNCC3)ccc12 (stereo not shown)
Request: Quick one: lower inhibition at 1 µM, 1 or 2 ? # respond with the chosen item's label
Result: 2

1. CC(O)c1cn(-c2ncc(-c3ccccc3)cn2)c2cc(C(=O)N3CCOCC3)ccc12 (single isomer, unassigned)
2. CC1CCCCN1C(=O)c1ccc2c([S+](C)[O-])cn(-c3ncc(-c4ccccc4F)cn3)c2c1 (stereo not shown)
Request: Quick one: lower inhibition at 1 µM, 1 or 2 ? # respond with the chosen item's label
Result: 2

1. COc1ccc(F)c(-c2cnc(-n3cc([S+](C)[O-])c4ccc(C(=O)N5CCNC(=O)C5)cc43)nc2)c1 (single isomer, unassigned)
2. C[S+]([O-])c1cn(-c2ncc(-c3cc(O)ccn3)cn2)c2cc(C(=O)N3CCOCC3)ccc12 (stereo not shown)
3. C[C@H](O)CN(C)C(=O)c1ccc2c([S+](C)[O-])cn(-c3ncc(-c4ccccc4F)cn3)c2c1 (stereo partly shown)
Request: Order each entry by recorded inhibition at 1 µM, climbing from the minimum. Please, when replying, give the labels in the order that was requested.
Result: 3, 2, 1

1. CS(=O)(=O)c1cn(-c2ncc(-c3ccccc3)cn2)c2cc(C(=O)N3C[C@@H]4C[C@H]3CN4)ccc12
2. C[S+]([O-])c1cn(-c2ncc(-c3ccccc3F)cn2)c2cc(C(=O)N3CCC(CO)CC3)ccc12 (stereo not shown)
Request: Quick one: lower inhibition at 1 µM, 1 or 2 ? # respond with the chosen item's label
Result: 2
